Molecular target: integrins on WM-115 cells (mainly integrin α5β1, αVβ3, and αVβ5)
Test: competitive cell adhesion assay
Test readout: IC50

[[record]]
binder = "FEANE (HELM PEPTIDE1{F.E.A.[dN].E}$PEPTIDE1,PEPTIDE1,1:R1-5:R2$$$V2.0; SMILES C[C@@H]1NC(=O)[C@H](CCC(=O)O)NC(=O)[C@H](Cc2ccccc2)NC(=O)[C@H](CCC(=O)O)NC(=O)[C@@H](CC(N)=O)NC1=O) [cyclopeptide-4 c-(-FEAnE-)]"
test_readout = "IC50"
observed_result = "> 1000 µM"

